Test system: Alternaria solani
Assay: Test F: tomato early blight, preventive spray on tomato seedlings
Type: in vivo
Conditions: Alternaria solani, 10 ppm, 100 = 100% disease control, 0 = no control, read-out: Test F disease control rating (tomato early blight)
Would you mind telling me the reported pest or weed control at 10 ppm of each entry?
Answer in %, number only, no unit symbol.

Ask | Give the reported pest or weed control at 10 ppm for this compound. Cc1nn(C)c(Nc2c(F)cccc2[N+](=O)[O-])c1-c1ccc(F)cc1F [Compound 118]
Reply | 60

Ask | Give the reported pest or weed control at 10 ppm for this compound. CCc1nn(C)c(Nc2c(F)cccc2[N+](=O)[O-])c1-c1ccc(F)cc1Cl [Compound 72]
Reply | 63

Ask | Give the reported pest or weed control at 10 ppm for this compound. Cc1cc(F)c(Nc2c(-c3ccc(F)cc3Cl)c(C)nn2C)c([N+](=O)[O-])c1 [Compound 93]
Reply | 99

Ask | Give the reported pest or weed control at 10 ppm for this compound. Cc1nn(C)c(Nc2c(F)cccc2[N+](=O)[O-])c1-c1ccc(F)cc1Br [Compound 60]
Reply | 75

Ask | Give the reported pest or weed control at 10 ppm for this compound. Cc1nn(C)c(Nc2c(F)cccc2[N+](=O)[O-])c1-c1c(F)cc(F)cc1Cl [Compound 68]
Reply | 98

Ask | Give the reported pest or weed control at 10 ppm for this compound. Cc1nn(C)c(Nc2c(F)cccc2[N+](=O)[O-])c1-c1ccc(F)cc1Cl [Compound 112]
Reply | 98

====

System: Blumeria graminis f. sp. tritici
Assay: Test C: wheat powdery mildew, preventive spray on wheat seedlings
Format: in vivo
Conditions: 50 ppm, rated after 8 days, 100 = 100% disease control, 0 = no control
observable: Test C disease control rating (wheat powdery mildew) (%)
Answer in %, number only, no unit symbol.

Ask | State the measured Test C disease control rating (wheat powdery mildew) (Blumeria graminis f. sp. tritici) of `Cc1ccc(Nc2c(-c3ccc(F)cc3Br)c(C)nn2C)c([N+](=O)[O-])c1`
Reply | 87

Ask | State the measured Test C disease control rating (wheat powdery mildew) (Blumeria graminis f. sp. tritici) of `CCc1nn(C)c(Nc2ccc(C)cc2[N+](=O)[O-])c1-c1ccc(F)cc1F`
Reply | 79

Ask | State the measured Test C disease control rating (wheat powdery mildew) (Blumeria graminis f. sp. tritici) of `CCc1nn(C)c(Nc2c(Cl)cc(Br)cc2[N+](=O)[O-])c1-c1ccc(F)cc1Cl`
Reply | 96

Ask | State the measured Test C disease control rating (wheat powdery mildew) (Blumeria graminis f. sp. tritici) of `Cc1nn(C)c(Nc2c(F)cc(F)cc2[N+](=O)[O-])c1-c1c(F)cccc1F`
Reply | 90

Ask | State the measured Test C disease control rating (wheat powdery mildew) (Blumeria graminis f. sp. tritici) of `Cc1nn(C)c(Nc2c(F)cc(F)cc2[N+](=O)[O-])c1-c1ccc(Cl)cc1F`
Reply | 97

Ask | State the measured Test C disease control rating (wheat powdery mildew) (Blumeria graminis f. sp. tritici) of `COc1cc(F)c(Nc2c(-c3ccc(Cl)cc3Cl)c(C)nn2C)c([N+](=O)[O-])c1`
Reply | 93

Ask | State the measured Test C disease control rating (wheat powdery mildew) (Blumeria graminis f. sp. tritici) of `COc1cc(F)c(Nc2c(-c3ccc(F)cc3Cl)c(C)nn2C)c([N+](=O)[O-])c1`
Reply | 97

Ask | State the measured Test C disease control rating (wheat powdery mildew) (Blumeria graminis f. sp. tritici) of `Cc1nn(C)c(Nc2c(Cl)cc(F)cc2[N+](=O)[O-])c1-c1c(F)cccc1F`
Reply | 95
